Biological target: T1, rat angiotensin 2 type 1 receptor (rat, UniProt P25095 1-359)
T1 sequence (looked up): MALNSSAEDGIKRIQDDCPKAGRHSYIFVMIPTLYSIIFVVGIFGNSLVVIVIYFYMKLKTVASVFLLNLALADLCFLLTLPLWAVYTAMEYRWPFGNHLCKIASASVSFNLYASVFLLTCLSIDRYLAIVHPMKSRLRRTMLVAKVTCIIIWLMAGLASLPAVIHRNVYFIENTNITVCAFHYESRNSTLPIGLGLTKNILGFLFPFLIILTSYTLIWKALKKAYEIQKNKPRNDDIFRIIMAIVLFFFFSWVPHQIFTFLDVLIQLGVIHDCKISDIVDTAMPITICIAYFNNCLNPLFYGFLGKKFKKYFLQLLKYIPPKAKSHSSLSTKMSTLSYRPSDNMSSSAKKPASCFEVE
Assay: cell-based or functional assay
Non-standard residues stand in square brackets, D forms with d. No end group written: not given here. Sar = CNCC(=O)O
b-arrestin2 Max (%) strictly less than 60% = Y. Otherwise N.

For orientation, consider the following solved cases.
Exercise: Say whether its b-arrestin2 Max (%) is strictly beneath 60%. Entry: [Sar]RVYRHP-NH2 (N-terminus assumed; SMILES CNCC(=O)N[C@@H](CCCNC(=N)N)C(=O)N[C@H](C(=O)N[C@@H](Cc1ccc(O)cc1)C(=O)N[C@@H](CCCNC(=N)N)C(=O)N[C@@H](Cc1c[nH]cn1)C(=O)N1CCC[C@H]1C(N)=O)C(C)C) [SEQ ID NO: 45]
Solution: N

Exercise: Say whether its b-arrestin2 Max (%) is strictly beneath 60%. Entry: VYIHPF (cyclic, as printed: Cyclo(...)) [SEQ ID NO: 38]
Solution: N

Exercise: Say whether its b-arrestin2 Max (%) is strictly beneath 60%. Entry: [Sar]RVYKHP-NH2 (N-terminus assumed; SMILES CNCC(=O)N[C@@H](CCCNC(=N)N)C(=O)N[C@H](C(=O)N[C@@H](Cc1ccc(O)cc1)C(=O)N[C@@H](CCCCN)C(=O)N[C@@H](Cc1c[nH]cn1)C(=O)N1CCC[C@H]1C(N)=O)C(C)C) [SEQ ID NO: 43]
Solution: N

Exercise: Say whether its b-arrestin2 Max (%) is strictly beneath 60%. Entry: DRVYIHPG-OH [SEQ ID NO: 56]
Solution: N

Next:
Exercise: Say whether its b-arrestin2 Max (%) is strictly beneath 60%. Entry: [Sar]RVY[dA]HP-NH2 (N-terminus assumed; SMILES CNCC(=O)N[C@@H](CCCNC(=N)N)C(=O)N[C@H](C(=O)N[C@@H](Cc1ccc(O)cc1)C(=O)N[C@H](C)C(=O)N[C@@H](Cc1c[nH]cn1)C(=O)N1CCC[C@H]1C(N)=O)C(C)C) [SEQ ID NO: 53]
Solution: Y

Exercise: Say whether its b-arrestin2 Max (%) is strictly beneath 60%. Entry: XRVYVHP (Sar (sarcosine) at 1) [SEQ ID NO: 54]
Solution: N

Exercise: Say whether its b-arrestin2 Max (%) is strictly beneath 60%. Entry: [Sar]RVYEHP-NH2 (N-terminus assumed; SMILES CNCC(=O)N[C@@H](CCCNC(=N)N)C(=O)N[C@H](C(=O)N[C@@H](Cc1ccc(O)cc1)C(=O)N[C@@H](CCC(=O)O)C(=O)N[C@@H](Cc1c[nH]cn1)C(=O)N1CCC[C@H]1C(N)=O)C(C)C) [SEQ ID NO: 40]
Solution: N

Exercise: Say whether its b-arrestin2 Max (%) is strictly beneath 60%. Entry: ERVYFHP (C-terminal amide (NH2)) [SEQ ID NO: 64]
Solution: Y

Exercise: Say whether its b-arrestin2 Max (%) is strictly beneath 60%. Entry: ARVYIHPA (NM-D-Ala (N-methyl-D-alanine) at 1) [SEQ ID NO: 47]
Solution: N

Exercise: Say whether its b-arrestin2 Max (%) is strictly beneath 60%. Entry: XRVYIHP (Sar (sarcosine) at 1; D-Pro at 7; C-terminal amide (NH2)) [SEQ ID NO: 51]
Solution: Y

Exercise: Say whether its b-arrestin2 Max (%) is strictly beneath 60%. Entry: ERVYYHP (C-terminal amide (NH2)) [SEQ ID NO: 59]
Solution: Y

Exercise: Say whether its b-arrestin2 Max (%) is strictly beneath 60%. Entry: DRVYYHP (D-Asp at 1; C-terminal amide (NH2)) [SEQ ID NO: 58]
Solution: N
